- System: MAPKAPK2;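 note: KINOMEscan kinase panel screen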
- CONDITION DESCRIPTION: concentration: 1 μM, replicates: in singlicate; n = 1
Recorded %Inh by entry
API: value field is a number in %; no unit string.

COMPOUND: O=C(Nc1n[nH]c2cc(-c3ccccc3F)ccc12)C1CC1
EXPERIMENTAL VALUE: 0

COMPOUND: COc1cc(Nc2nccc(N3CCC(NC(=O)C4COc5ccccc5O4)C3)n2)cc(OC)c1OC (stereo not drawn)
EXPERIMENTAL VALUE: 0

COMPOUND: CCS(=O)c1ccc(-c2coc3ccc(-c4nnc(C)o4)cc23)cc1 (stereo not drawn)
EXPERIMENTAL VALUE: 0

COMPOUND: Nc1nccc2scc(-c3ccc4c(c3)CCN4C(=O)Cc3ccccc3)c12
EXPERIMENTAL VALUE: 6

COMPOUND: COC(=O)c1c(-c2ccccc2)c2cc(Br)ccc2c(=O)n1Cc1ccc(S(C)(=O)=O)cc1
EXPERIMENTAL VALUE: 4

Attention now shifts to the item below.
Q) Give %Inh for CN1C(=O)C(Nc2cc(Cl)c(O)c(Cl)c2)=C(c2ccc(Cl)cc2)C1=O
A) 89
